ASSAY_TEXT: metabolic stability in mouse liver homogenate
Format: in vitro ADME
TEST_CONTEXT: mouse liver homogenate in PBS (1:2 w/v), pH 7.4
VALUE_TYPE: half-life at 20 μM

## Input Any idea what half-life at 20 μM was measured for CC(C)CN(Cc1cc(O)c2c(c1)C=CC(C)(C)O2)S(=O)(=O)c1ccncc1 [Compound 6l] ?
## Output 13 to 20 h
